test system: HCT-116; assay: Inhibition of human HCT116 cell proliferation; format: functional, cell-based
pIC50: −log10 of the molar value.

# Molecule, pIC50
records = [
    ("COc1ccc(O[C@@H]2/C=C\\CC(O)C[C@@H]3[C@@H](C(C)C)CC=C(C)[C@@H]3C[C@@H]2OC(=O)/C=C/c2cn(C)cn2)cc1 (single isomer, unassigned)", 6.05),
    ("CC1=CC[C@H](C(C)C)[C@H]2C[C@H](OC(=O)C(C)(C)C)[C@@H](O)/C=C\\C[C@@H](OC(=O)/C=C/c3cn(C)cn3)C[C@@H]12", 5.40),
]

###

assay: Antiproliferative activity against human FEK4 cells assessed as inhibition of cell proliferation after 3 days by MTS assay; type: cell-based; conditions: FEK4, 72 h
pIC50: −log10 of the molar value.
Quantity: pIC50

# Structure Smiles String, Quantity, Result Qualifier, Measured Number
rows = [
    ("COc1cc(C(=O)/C=C/c2cn(C)cn2)cc(OC)c1OC", "pIC50", "=", 4.07),
    ("COc1cc(C(=O)/C=C/c2nccn2C)cc(OC)c1OC", "pIC50", "=", 4.76),
    ("COc1cc(C(=O)CCc2cnc[nH]2)cc(OC)c1OC", "pIC50", "<", 3.30),
    ("COc1ccc(C(=O)/C=C/c2cccn2C)cc1", "pIC50", "=", 3.73),
    ("COc1cc(C(=O)/C=C/c2cccn2C)cc(OC)c1OC", "pIC50", "=", 3.93),
    ("COc1ccc(C(=O)/C=C/c2ccc[nH]2)cc1OC", "pIC50", "=", 3.87),
    ("COc1cc(C(=O)/C=C/c2cncn2C)cc(OC)c1OC", "pIC50", "=", 4.30),
    ("COc1ccc(C(=O)/C=C/c2cnc[nH]2)cc1OC", "pIC50", "=", 4.07),
    ("COc1cc(C(=O)/C=C/c2ccc[nH]2)cc(OC)c1OC", "pIC50", "=", 3.81),
    ("COc1ccc(C(=O)/C=C/c2cccn2C)cc1OC", "pIC50", "=", 3.79),
    ("COc1ccc(C(=O)/C=C/c2ccc[nH]2)cc1", "pIC50", "<", 3.30),
    ("COc1cc(C(=O)/C=C/c2cnc[nH]2)cc(OC)c1OC", "pIC50", "=", 4.27),
    ("COc1cc(C(=O)/C=C/c2ncc[nH]2)cc(OC)c1OC", "pIC50", "=", 4.54),
]

###

test system: LNCaP; experiment: Antiproliferative activity against human LNCAP cells assessed as inhibition of cell proliferation after 3 days by MTS assay; format: functional, cell-based; conditions: 72 h
Measured IC50 accompanies every entry in the list below.
Quantity: IC50 (µM)

# Structure Smiles String, Quantity, Unit Name, Result Qualifier, Measured Number
measured = [
    ("COc1ccc(C(=O)/C=C/c2cccn2C)cc1OC", "IC50", "µM", "=", 56.3),
    ("COc1cccc2c1C(=O)c1c(O)c3c(c(O)c1C2=O)C[C@@](O)(C(=O)CO)C[C@@H]3O[C@H]1C[C@H](N)[C@H](O)[C@H](C)O1", "IC50", "µM", "=", 0.154),
    ("COc1cc(C(=O)/C=C/c2cnc[nH]2)cc(OC)c1OC", "IC50", "µM", "=", 48.1),
    ("COc1ccc(C(=O)/C=C/c2ccc[nH]2)cc1", "IC50", "µM", ">", 500),
    ("COc1ccc(C(=O)/C=C/c2ccc[nH]2)cc1OC", "IC50", "µM", "=", 105),
    ("COc1ccc(C(=O)/C=C/c2cccn2C)cc1", "IC50", "µM", "=", 75.5),
    ("COc1ccc(C(=O)/C=C/c2cnc[nH]2)cc1OC", "IC50", "µM", "=", 46.2),
    ("COc1cc(C(=O)/C=C/c2ncc[nH]2)cc(OC)c1OC", "IC50", "µM", "=", 17.1),
    ("COc1cc(C(=O)/C=C/c2cccn2C)cc(OC)c1OC", "IC50", "µM", "=", 69.5),
    ("COc1cc(C(=O)/C=C/c2nccn2C)cc(OC)c1OC", "IC50", "µM", "=", 11),
    ("COc1cc(C(=O)/C=C/c2ccc[nH]2)cc(OC)c1OC", "IC50", "µM", "=", 59.9),
]
